The reported numbers originate from patent USRE47150.

# assay-target: T1, human tissue factor pathway inhibitor (TFPI) (human, UniProt P10646 29-304, limits assumed)
# T1 construct: bought; also called hTFPI; human TFPI
# T1 sequence (looked up): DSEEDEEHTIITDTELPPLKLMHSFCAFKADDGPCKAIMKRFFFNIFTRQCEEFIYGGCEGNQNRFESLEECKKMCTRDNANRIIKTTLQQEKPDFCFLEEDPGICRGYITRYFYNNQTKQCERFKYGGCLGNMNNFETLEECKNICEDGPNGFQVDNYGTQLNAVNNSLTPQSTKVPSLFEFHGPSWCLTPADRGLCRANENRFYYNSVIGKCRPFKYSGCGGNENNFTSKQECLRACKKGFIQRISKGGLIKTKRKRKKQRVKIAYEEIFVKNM
# test-summary: SPR, TFPI immobilized
Entries and their measured KD fold improvement follow.
Record the value in fold, omitting the unit from your answer.

The examples below pair each entry with its known result.
binder: B9.7 (4B7 HC N32D+D62R+Y112D/LC S32R+N35I) (Fab, V domains shown) VH: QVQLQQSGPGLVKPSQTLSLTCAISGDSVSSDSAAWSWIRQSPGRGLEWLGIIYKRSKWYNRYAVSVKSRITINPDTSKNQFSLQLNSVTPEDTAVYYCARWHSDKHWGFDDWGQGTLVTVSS VL: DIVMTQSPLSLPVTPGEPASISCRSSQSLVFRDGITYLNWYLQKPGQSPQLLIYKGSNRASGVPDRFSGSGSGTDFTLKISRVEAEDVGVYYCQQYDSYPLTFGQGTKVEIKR
KD fold improvement (fold): 1270
//
binder: B18.5 (4B7 HC N32D+D62Q+Y112D/LC F31I+D33F+N35I) (Fab, V domains shown) VH: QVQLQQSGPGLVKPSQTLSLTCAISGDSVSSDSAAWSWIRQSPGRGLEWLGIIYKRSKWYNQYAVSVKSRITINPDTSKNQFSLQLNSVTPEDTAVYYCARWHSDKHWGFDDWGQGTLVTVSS VL: DIVMTQSPLSLPVTPGEPASISCRSSQSLVISFGITYLNWYLQKPGQSPQLLIYKGSNRASGVPDRFSGSGSGTDFTLKISRVEAEDVGVYYCQQYDSYPLTFGQGTKVEIKR
KD fold improvement (fold): 428
//
binder: 4B7 wild-type Fab (Fab, V domains shown, Fab with HA (or c-myc) and 6xHis tag at the C-terminus of the heavy chain; also called 4B7wt; parental 4B7) VH: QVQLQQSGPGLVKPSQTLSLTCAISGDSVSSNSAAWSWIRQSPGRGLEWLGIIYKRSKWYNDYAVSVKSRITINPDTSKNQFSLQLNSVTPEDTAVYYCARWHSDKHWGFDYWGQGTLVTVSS VL: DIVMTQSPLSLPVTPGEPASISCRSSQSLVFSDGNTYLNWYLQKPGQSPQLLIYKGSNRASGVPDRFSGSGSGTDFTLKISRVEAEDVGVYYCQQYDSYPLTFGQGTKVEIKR
KD fold improvement (fold): 1
//
binder: B32.5 (4B7 HC D62R+Y112D/LC D33F+N35I) (Fab, V domains shown) VH: QVQLQQSGPGLVKPSQTLSLTCAISGDSVSSNSAAWSWIRQSPGRGLEWLGIIYKRSKWYNRYAVSVKSRITINPDTSKNQFSLQLNSVTPEDTAVYYCARWHSDKHWGFDDWGQGTLVTVSS VL: DIVMTQSPLSLPVTPGEPASISCRSSQSLVFSFGITYLNWYLQKPGQSPQLLIYKGSNRASGVPDRFSGSGSGTDFTLKISRVEAEDVGVYYCQQYDSYPLTFGQGTKVEIKR
KD fold improvement (fold): 749
//
binder: B27.1 (4B7 HC N32D+D62R+Y112D/LC N35T+D97T) (Fab, V domains shown) VH: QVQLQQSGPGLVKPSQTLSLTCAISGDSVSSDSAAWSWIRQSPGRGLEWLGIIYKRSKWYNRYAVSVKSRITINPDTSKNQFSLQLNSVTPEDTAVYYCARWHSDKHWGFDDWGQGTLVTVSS VL: DIVMTQSPLSLPVTPGEPASISCRSSQSLVFSDGTTYLNWYLQKPGQSPQLLIYKGSNRASGVPDRFSGSGSGTDFTLKISRVEAEDVGVYYCQQYTSYPLTFGQGTKVEIKR
KD fold improvement (fold): 875
//
binder: B2.0 (4B7 HC N32D+D62R+Y112D/LC S32R+D33F+N35I+D97T) (Fab, V domains shown) VH: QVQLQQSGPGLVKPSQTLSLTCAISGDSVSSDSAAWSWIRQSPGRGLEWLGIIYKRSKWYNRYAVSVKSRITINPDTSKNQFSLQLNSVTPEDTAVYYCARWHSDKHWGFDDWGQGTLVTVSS VL: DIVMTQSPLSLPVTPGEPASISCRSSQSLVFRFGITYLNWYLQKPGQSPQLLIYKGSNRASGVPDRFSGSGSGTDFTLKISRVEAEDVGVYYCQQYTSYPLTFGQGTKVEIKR
KD fold improvement (fold): 2180
//
binder: gB9.7 (4B7 HC Q1E+N32D+G44S+K55Y+D62R+Y112D/LC S32R+N35I) (Fab, V domains shown) VH: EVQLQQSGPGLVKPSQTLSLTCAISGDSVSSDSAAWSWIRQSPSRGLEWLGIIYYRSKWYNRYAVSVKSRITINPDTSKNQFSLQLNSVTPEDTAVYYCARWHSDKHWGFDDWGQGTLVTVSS VL: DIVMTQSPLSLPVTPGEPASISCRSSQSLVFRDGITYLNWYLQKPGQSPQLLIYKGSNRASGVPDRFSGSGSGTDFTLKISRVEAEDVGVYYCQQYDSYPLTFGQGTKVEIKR
KD fold improvement (fold): 1090
//
binder: B41.2 (4B7 HC N32D+D62R+Y112D/LC S32R+D33F+N35I) (Fab, V domains shown) VH: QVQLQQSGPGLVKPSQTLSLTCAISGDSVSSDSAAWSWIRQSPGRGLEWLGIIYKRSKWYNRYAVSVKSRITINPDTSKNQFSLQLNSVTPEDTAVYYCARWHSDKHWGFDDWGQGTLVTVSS VL: DIVMTQSPLSLPVTPGEPASISCRSSQSLVFRFGITYLNWYLQKPGQSPQLLIYKGSNRASGVPDRFSGSGSGTDFTLKISRVEAEDVGVYYCQQYDSYPLTFGQGTKVEIKR
KD fold improvement (fold): 1550

Req: Quick check: KD fold improvement of gB9.7-IgG (4B7 HC N32D+G44S+K55Y+D62R+Y112D/LC S32R+N35I) (antibody, V domains shown, IgG format by its name) VH: QVQLQQSGPGLVKPSQTLSLTCAISGDSVSSDSAAWSWIRQSPSRGLEWLGIIYYRSKWYNRYAVSVKSRITINPDTSKNQFSLQLNSVTPEDTAVYYCARWHSDKHWGFDDWGQGTLVTVSS VL: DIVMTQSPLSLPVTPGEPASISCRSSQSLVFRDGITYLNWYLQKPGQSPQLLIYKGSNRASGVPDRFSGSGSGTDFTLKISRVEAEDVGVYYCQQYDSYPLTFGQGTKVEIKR ?
Resp: 1450
